- protocol_text: Microsomal stability in human liver microsomes assessed as intrinsic clearance
- Assay type: ADME, Microsome
- measurement_context: read-out: CLH
property: CLint scaled (L/h/kg)

{"substance_smiles": "CCOc1ccc(F)cc1NC(=O)c1cc(C)ccc1NS(=O)(=O)CC", "result_unit": "L/h/kg", "CLint scaled": 4.16}
{"substance_smiles": "O=C(Nc1ccccc1OCC(F)(F)F)c1ccccc1NS(=O)(=O)C1CC1", "result_unit": "L/h/kg", "CLint scaled": 2.41}
{"substance_smiles": "CCOc1ccccc1NC(=O)c1cc(Cl)ccc1NS(=O)(=O)C1CC1", "result_unit": "L/h/kg", "CLint scaled": 7.78}
{"substance_smiles": "CCOc1ccccc1NC(=O)c1cc(C)ccc1NS(=O)(=O)C1CC1", "result_unit": "L/h/kg", "CLint scaled": 4.51}

(A) CCS(=O)(=O)Nc1ccccc1C(=O)Nc1ccc(F)cc1OCC(F)(F)F
(B) CCOc1ccccc1NC(=O)c1cc(F)ccc1NS(=O)(=O)C1CC1
Input line: Consider A and B . Which of these has its CLint scaled at a higher number? Could you answer with the label of the item you picked?
Output line: A

(A) CCOc1ccccc1NC(=O)c1cc(F)ccc1NS(=O)(=O)CC
(B) CCOc1ccc(F)cc1NC(=O)c1cc(F)ccc1NS(=O)(=O)C1CC1
Input line: Please indicate which item has the smaller measured CLint scaled: A versus B Your answer should be the label attached to the chosen record.
Output line: A
(A: 2.16 L/h/kg, B: 3.56 L/h/kg)

(I) Cc1cc2cccc(NC(=O)c3ccccc3NS(=O)(=O)C3CC3)c2o1
(II) CCOc1ccc(F)cc1NC(=O)c1cc(C)ccc1NS(=O)(=O)C1CC1
Input line: Larger number for CLint scaled: I , or II ? Respond using the label that marks the chosen record.
Output line: II
(II: 6.86 L/h/kg, I: 4.49 L/h/kg)

---

- protocol_text: Plasma protein binding in mouse assessed as unbound fraction
- Assay type: ADME, cell-free
- measurement_context: read-out: PPB
property: fraction unbound

{"substance_smiles": "Cc1cc2cccc(NC(=O)c3ccccc3NS(=O)(=O)C3CC3)c2o1", "fraction unbound": 0.026}

(I) CCCOc1ccccc1NC(=O)c1ccccc1NS(=O)(=O)C1CC1
(II) O=C(Nc1ccccc1OCC(F)(F)F)c1ccccc1NS(=O)(=O)C1CC1
(III) CCOc1ccccc1NC(=O)c1cc(F)ccc1NS(=O)(=O)C1CC1
Input line: Rank the items in ascending order with respect to fraction unbound. Please respond by ranking the labels in the order requested.
Output line: I, II, III
(I: 0.015, II: 0.022, III: 0.041)

---

- protocol_text: AUC in mouse at 2 mg/kg, ip administered as discrete dose
- Format: ADME, organism-based
- Set-up: dose 2 mg/kg, route ip
- measurement_context: in vivo
property: AUC (ng·h/mL)

(1) CCOc1ccc(F)cc1NC(=O)c1ccccc1NS(=O)(=O)C1CC1
(2) CCOc1ccc(F)cc1NC(=O)c1cc(F)ccc1NS(=O)(=O)C1CC1
Input line: Returns: the label, 1 or 2 , whose recorded AUC is the lower number. Indicate which entry you chose by stating its label.
Output line: 1

---

- protocol_text: Plasma protein binding in human assessed as unbound fraction
- Type: ADME, cell-free
- measurement_context: read-out: PPB
property: fraction unbound

Example results:
{"substance_smiles": "CCOc1ccc(F)cc1NC(=O)c1cc(C)ccc1NS(=O)(=O)CC", "quantitative_readout": 0.003}
{"substance_smiles": "CCOc1ccc(F)cc1NC(=O)c1cc(C)ccc1NS(=O)(=O)C1CC1", "quantitative_readout": 0.003}
{"substance_smiles": "CCOc1ccc(F)cc1NC(=O)c1ccccc1NS(=O)(=O)C1CC1", "quantitative_readout": 0.004}
{"substance_smiles": "CCOc1ccccc1NC(=O)c1cc(Cl)ccc1NS(=O)(=O)C1CC1", "quantitative_readout": 0.001}
{"substance_smiles": "CCOc1ccccc1NC(=O)c1cc(F)ccc1NS(=O)(=O)CC", "quantitative_readout": 0.002}

(I) CCOc1ccccc1NC(=O)c1cc(C)ccc1NS(=O)(=O)C1CC1
(II) CCOc1ccc(F)cc1NC(=O)c1cc(F)ccc1NS(=O)(=O)C1CC1
Input line: Compare I and II by numeric fraction unbound and name the larger one. Give the label of your selection.
Output line: I

(P) O=C(Nc1ccccc1OCC(F)(F)F)c1ccccc1NS(=O)(=O)C1CC1
(Q) CCOc1ccc(F)cc1NC(=O)c1cc(Cl)ccc1NS(=O)(=O)C1CC1
(R) CCOc1ccc(F)cc1NC(=O)c1cc(F)ccc1NS(=O)(=O)CC
Input line: Order each entry by recorded fraction unbound, climbing from the minimum. Present the labels in the sequence the task asks for.
Output line: Q, R, P
(Q: 0.001, R: 0.002, P: 0.004)

---

- protocol_text: Tmax in mouse at 2 mg/kg, ip administered as discrete dose
- Assay type: ADME, organism-based
- measurement_context: in vivo
property: Tmax (min)

{"substance_smiles": "CCOc1ccc(F)cc1NC(=O)c1cc(F)ccc1NS(=O)(=O)C1CC1", "result_unit": "min", "Tmax": 10.2}
{"substance_smiles": "CCOc1ccc(F)cc1NC(=O)c1ccccc1NS(=O)(=O)C1CC1", "result_unit": "min", "Tmax": 10.2}

---

- assay_target: Histamine H1 receptor (Homo sapiens, UniProt P35367)
- Sequence (P35367 whole entry): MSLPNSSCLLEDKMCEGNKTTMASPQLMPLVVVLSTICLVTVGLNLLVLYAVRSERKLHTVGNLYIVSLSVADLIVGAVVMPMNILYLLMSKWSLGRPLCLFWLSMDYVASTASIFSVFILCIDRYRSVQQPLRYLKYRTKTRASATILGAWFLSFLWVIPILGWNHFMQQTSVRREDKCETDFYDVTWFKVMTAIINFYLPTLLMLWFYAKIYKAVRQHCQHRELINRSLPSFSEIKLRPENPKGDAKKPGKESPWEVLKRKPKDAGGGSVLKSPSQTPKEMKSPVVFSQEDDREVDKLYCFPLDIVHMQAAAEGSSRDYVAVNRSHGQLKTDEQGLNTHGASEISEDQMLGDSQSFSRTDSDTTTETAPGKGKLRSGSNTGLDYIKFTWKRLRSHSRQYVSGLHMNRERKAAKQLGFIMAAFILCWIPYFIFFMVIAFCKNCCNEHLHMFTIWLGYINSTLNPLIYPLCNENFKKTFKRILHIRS
property: Ki

Input line: Given the entry "CCOc1ccc(F)cc1NC(=O)c1ccccc1NS(=O)(=O)C1CC1" , what Ki was observed with Histamine H1 receptor (Homo sapiens, UniProt P35367)?
Output line: > 4 µM

---

- protocol_text: Half life in mouse at 2 mg/kg, ip administered as discrete dose
- Type: ADME, organism-based
- measurement_context: in vivo
property: half-life (min)

(a) CCOc1ccc(F)cc1NC(=O)c1cc(F)ccc1NS(=O)(=O)C1CC1
(b) CCOc1ccc(F)cc1NC(=O)c1ccccc1NS(=O)(=O)C1CC1
Input line: Compare a and b by numeric half-life and name the larger one. Indicate which entry you chose by stating its label.
Output line: b

---

- protocol_text: Plasma protein binding in mouse assessed as unbound fraction
- Type: ADME, cell-free
- measurement_context: read-out: PPB
property: fraction unbound

# example entries with known answers
{"substance_smiles": "CCOc1ccc(F)cc1NC(=O)c1cc(C)ccc1NS(=O)(=O)CC", "fraction unbound": 0.014}
{"substance_smiles": "CCOc1ccc(F)cc1NC(=O)c1ccccc1NS(=O)(=O)C1CC1", "fraction unbound": 0.022}

(1) CCS(=O)(=O)Nc1ccccc1C(=O)Nc1ccc(F)cc1OCC(F)(F)F
(2) CCOc1ccc(F)cc1NC(=O)c1cc(F)ccc1NS(=O)(=O)CC
Input line: Param pair: 1 , 2 . Output: the one whose fraction unbound is numerically greater. Mark your selection by writing its label.
Output line: 1
(1: 0.021, 2: 0.001)

(A) CCOc1ccc(F)cc1NC(=O)c1cc(Cl)ccc1NS(=O)(=O)C1CC1
(B) CCOc1ccc(F)cc1NC(=O)c1cc(F)ccc1NS(=O)(=O)C1CC1
(C) CCOc1ccccc1NC(=O)c1cc(C)ccc1NS(=O)(=O)C1CC1
(D) CCOc1ccccc1NC(=O)c1cc(Cl)ccc1NS(=O)(=O)C1CC1
(E) CCOc1ccccc1NC(=O)c1ccccc1NS(=O)(=O)C1CC1
Input line: Rank ascending by fraction unbound. Returns: the labels arranged in the requested order.
Output line: D, A, B, E, C
(D: 0.001, A: 0.003, B: 0.011, E: 0.017, C: 0.043)

(P) CCOc1ccccc1NC(=O)c1cc(F)ccc1NS(=O)(=O)CC
(Q) CCOc1ccc(F)cc1NC(=O)c1cc(C)ccc1NS(=O)(=O)C1CC1
Input line: For the two items P and Q , which reports the higher fraction unbound value? Your answer should be the label of the entry you select.
Output line: P

---

- protocol_text: AUC in Sprague-Dawley rat at 0.25 mg/kg, iv bolus injection administered as cassette dose
- Format: ADME, organism-based
- Parameters: dose 0.25 mg/kg, route iv
- measurement_context: in vivo
property: AUC (ng·h/mL)

(a) CCOc1ccc(F)cc1NC(=O)c1cc(C)ccc1NS(=O)(=O)C1CC1
(b) CCOc1ccc(F)cc1NC(=O)c1ccccc1NS(=O)(=O)C1CC1
(c) CCOc1ccc(F)cc1NC(=O)c1cc(F)ccc1NS(=O)(=O)C1CC1
Input line: Using the list above, order everything by rising AUC. Order the labels as requested and give them as your answer.
Output line: a, b, c

---

- assay_target: Mas-related G-protein coupled receptor member X1 (Homo sapiens, UniProt Q96LB2)
- Sequence (Q96LB2 whole entry): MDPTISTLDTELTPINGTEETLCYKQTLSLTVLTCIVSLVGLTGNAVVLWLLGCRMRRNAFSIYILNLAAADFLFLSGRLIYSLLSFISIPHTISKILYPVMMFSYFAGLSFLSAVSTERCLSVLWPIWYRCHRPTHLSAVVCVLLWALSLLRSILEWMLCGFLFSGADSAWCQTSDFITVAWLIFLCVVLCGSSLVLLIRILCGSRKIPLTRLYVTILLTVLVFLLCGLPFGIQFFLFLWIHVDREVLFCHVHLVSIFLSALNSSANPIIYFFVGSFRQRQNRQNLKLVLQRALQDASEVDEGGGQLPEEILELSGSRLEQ
- protocol_text: Positive allosteric modulator activity at human MRGPRX1 expressed in HEK293 cells assessed as maximal efficacy at 5 uM in presence of BAM8-22 by Fluo4-dye based FLIPR assay relative to control
- Assay type: cell-based
- measurement_context: filed as positive allosteric modulator
property: Emax (%)

{"substance_smiles": "CCOc1ccccc1NC(=O)c1cc(Cl)ccc1NS(=O)(=O)CC", "result_unit": "%", "Emax": 89.2}
{"substance_smiles": "O=C(Nc1ccccc1OC1CCCC1)c1ccccc1NS(=O)(=O)C1CC1", "result_unit": "%", "Emax": 80.1}
{"substance_smiles": "O=C(Nc1ccccc1OCC(F)(F)F)c1cc(Cl)ccc1NS(=O)(=O)C1CC1", "result_unit": "%", "Emax": 103}
{"substance_smiles": "CCCOc1ccccc1NC(=O)c1ccccc1NS(=O)(=O)C1CC1", "result_unit": "%", "Emax": 80.8}
{"substance_smiles": "CC(C)Oc1ccccc1NC(=O)c1ccccc1NS(=O)(=O)C1CC1", "result_unit": "%", "Emax": 83.1}
{"substance_smiles": "CCOc1ccc(F)cc1NC(=O)c1cc(Cl)ccc1NS(=O)(=O)CC", "result_unit": "%", "Emax": 118}
{"substance_smiles": "CCOc1ccc(F)cc1NC(=O)c1cc(F)ccc1NS(=O)(=O)CC", "result_unit": "%", "Emax": 136}
{"substance_smiles": "CCOc1ccc(F)cc1NC(=O)c1cc(C)ccc1NS(=O)(=O)CC", "result_unit": "%", "Emax": 128}
{"substance_smiles": "CCOc1ccc(F)cc1NC(=O)c1ccccc1NS(=O)(=O)C1CC1", "result_unit": "%", "Emax": 82.2}

(I) CCOc1ccccc1NC(=O)c1cc(C)ccc1NS(=O)(=O)CC
(II) CCOc1ccc(F)cc1NC(=O)c1ccccc1NS(=O)(=O)CC
Input line: Kindly compare I with II and tell me which has the lower Emax figure. Give the label of your selection.
Output line: II
(II: 74%, I: 108%)
